Values from paper PMC9783783

- ASSAY_COMMENT: in vivo
- DETAILS: rat, in vivo, iv, 10 mg/kg, AUC, LC rats; 10 mg/kg i.v. 1 min infusion
MEASURED_PARAMETER: AUC (ng·h/mL)
Give bare numbers, in ng·h/mL.

-- ask Quick one: give measured AUC for CC1CCN(C(=O)CC#N)CC1N(C)c1ncnc2[nH]ccc12 (stereo not shown) [tofacitinib]
-- reply 18900

* * *

- ASSAY_COMMENT: in vivo
- DETAILS: rat, in vivo, iv, 10 mg/kg, Vss, LC rats; 10 mg/kg i.v.
MEASURED_PARAMETER: Vd (L/kg)
Give bare numbers, in L/kg.

-- ask Quick one: give measured Vd for CC1CCN(C(=O)CC#N)CC1N(C)c1ncnc2[nH]ccc12 (stereo not shown)
-- reply 0.798

* * *

- ASSAY_COMMENT: in vivo
- DETAILS: rat, in vivo, po, 20 mg/kg, AUC, CON rats; 20 mg/kg oral
MEASURED_PARAMETER: AUC

-- ask Quick one: give measured AUC for CC1CCN(C(=O)CC#N)CC1N(C)c1ncnc2[nH]ccc12 (stereo not shown) [tofacitinib]
-- reply 6400 ng·h/mL

* * *

- ASSAY_COMMENT: in vivo
- DETAILS: rat, in vivo, po, 20 mg/kg, Cmax, CON rats; 20 mg/kg oral
- Description: All surgical procedures were performed following anesthesia with 100 mg/kg ketamine according to a previously reported method. […] The volume of the combined urine was then measured, and two 100 μL aliquot samples were collected. […] Pharmacokinetic parameters were estimated using the standard method by non-compartmental analysis (WinNonlin; Pharsight Corporation, Mountain View, CA, USA). AUC values were calculated using the trapezoidal rule–extrapolation method. […]
MEASURED_PARAMETER: Cmax (ng/mL)
Numbers only, in ng/mL.

-- ask Quick one: give measured Cmax for CC1CCN(C(=O)CC#N)CC1N(C)c1ncnc2[nH]ccc12 (stereo not shown)
-- reply 3530

* * *

- ASSAY_COMMENT: in vivo
- DETAILS: rat, in vivo, iv, 10 mg/kg, CL, CON rats; 10 mg/kg i.v.
MEASURED_PARAMETER: clearance

-- ask Quick one: give measured clearance for CC1CCN(C(=O)CC#N)CC1N(C)c1ncnc2[nH]ccc12 (stereo not shown) [tofacitinib]
-- reply 24.1 mL/min/kg

* * *

- ASSAY_COMMENT: in vivo
- DETAILS: rat, in vivo, iv, 10 mg/kg, CL, LC rats; 10 mg/kg i.v.
MEASURED_PARAMETER: clearance (mL/min/kg)
One number for each entry, in mL/min/kg.

-- ask Quick one: give measured clearance for CC1CCN(C(=O)CC#N)CC1N(C)c1ncnc2[nH]ccc12 (stereo not shown) [tofacitinib]
-- reply 11

* * *

- ASSAY_COMMENT: in vivo
- DETAILS: rat, in vivo, po, 20 mg/kg, CLR, LC-ISN rats; 20 mg/kg oral
MEASURED_PARAMETER: CL renal (mL/min/kg)
One number for each entry, in mL/min/kg.

-- ask Quick one: give measured CL renal for CC1CCN(C(=O)CC#N)CC1N(C)c1ncnc2[nH]ccc12 (stereo not shown)
-- reply 5.71

* * *

- ASSAY_COMMENT: in vivo
- DETAILS: rat, in vivo, po, 20 mg/kg, Cmax, LC-ISN rats; 20 mg/kg oral
MEASURED_PARAMETER: Cmax (ng/mL)
Answers are plain numbers, in ng/mL.

-- ask Quick one: give measured Cmax for CC1CCN(C(=O)CC#N)CC1N(C)c1ncnc2[nH]ccc12 (stereo not shown)
-- reply 6080

* * *

- ASSAY_COMMENT: in vivo
- DETAILS: rat, in vivo, po, 20 mg/kg, F (absolute oral bioavailability), LC-ISN rats; 20 mg/kg oral vs 10 mg/kg i.v.
MEASURED_PARAMETER: bioavailability (%)
Answers are plain numbers, in %.

-- ask Quick one: give measured bioavailability for CC1CCN(C(=O)CC#N)CC1N(C)c1ncnc2[nH]ccc12 (stereo not shown)
-- reply 84.1

* * *

- ASSAY_COMMENT: in vivo
- DETAILS: rat, in vivo, po, 20 mg/kg, F (absolute oral bioavailability), LC rats; 20 mg/kg oral vs 10 mg/kg i.v.
- Method: All surgical procedures were performed following anesthesia with 100 mg/kg ketamine according to a previously reported method. […] The volume of the combined urine was then measured, and two 100 μL aliquot samples were collected. […] Pharmacokinetic parameters were estimated using the standard method by non-compartmental analysis (WinNonlin; Pharsight Corporation, Mountain View, CA, USA). AUC values were calculated using the trapezoidal rule–extrapolation method. […]
MEASURED_PARAMETER: bioavailability (%)
Give bare numbers, in %.

-- ask Quick one: give measured bioavailability for CC1CCN(C(=O)CC#N)CC1N(C)c1ncnc2[nH]ccc12 (stereo not shown)
-- reply 89.5

* * *

- ASSAY_COMMENT: in vivo
- DETAILS: rat, in vivo, iv, 10 mg/kg, CLR, LC-ISN rats; 10 mg/kg i.v.
- Protocol: All surgical procedures were performed following anesthesia with 100 mg/kg ketamine according to a previously reported method. […] The volume of the combined urine was then measured, and two 100 μL aliquot samples were collected. […] Pharmacokinetic parameters were estimated using the standard method by non-compartmental analysis (WinNonlin; Pharsight Corporation, Mountain View, CA, USA). AUC values were calculated using the trapezoidal rule–extrapolation method. […]
MEASURED_PARAMETER: CL renal (mL/min/kg)
Numbers only, in mL/min/kg.

-- ask Quick one: give measured CL renal for CC1CCN(C(=O)CC#N)CC1N(C)c1ncnc2[nH]ccc12 (stereo not shown)
-- reply 4.1

* * *

- ASSAY_COMMENT: in vivo
- DETAILS: rat, in vivo, po, 20 mg/kg, AUC, LC-ISN rats; 20 mg/kg oral
- Experimental: All surgical procedures were performed following anesthesia with 100 mg/kg ketamine according to a previously reported method. […] The volume of the combined urine was then measured, and two 100 μL aliquot samples were collected. […] Pharmacokinetic parameters were estimated using the standard method by non-compartmental analysis (WinNonlin; Pharsight Corporation, Mountain View, CA, USA). AUC values were calculated using the trapezoidal rule–extrapolation method. […]
MEASURED_PARAMETER: AUC (ng·h/mL)
Give bare numbers, in ng·h/mL.

-- ask Quick one: give measured AUC for CC1CCN(C(=O)CC#N)CC1N(C)c1ncnc2[nH]ccc12 (stereo not shown)
-- reply 20700

* * *

- ASSAY_COMMENT: in vivo
- DETAILS: rat, in vivo, iv, 10 mg/kg, CLR, LC rats; 10 mg/kg i.v.
MEASURED_PARAMETER: CL renal (mL/min/kg)
Give bare numbers, in mL/min/kg.

-- ask Quick one: give measured CL renal for CC1CCN(C(=O)CC#N)CC1N(C)c1ncnc2[nH]ccc12 (stereo not shown)
-- reply 4.65

* * *

- ASSAY_COMMENT: in vivo
- DETAILS: rat, in vivo, po, 20 mg/kg, Tmax, LC-ISN rats; 20 mg/kg oral
- Procedure: All surgical procedures were performed following anesthesia with 100 mg/kg ketamine according to a previously reported method. […] The volume of the combined urine was then measured, and two 100 μL aliquot samples were collected. […] Pharmacokinetic parameters were estimated using the standard method by non-compartmental analysis (WinNonlin; Pharsight Corporation, Mountain View, CA, USA). AUC values were calculated using the trapezoidal rule–extrapolation method. […]
MEASURED_PARAMETER: Tmax (h)
Numbers only, in h.

-- ask Quick one: give measured Tmax for CC1CCN(C(=O)CC#N)CC1N(C)c1ncnc2[nH]ccc12 (stereo not shown)
-- reply 1.43

* * *

- ASSAY_COMMENT: in vivo
- DETAILS: rat, in vivo, iv, 10 mg/kg, CLR, CON rats; 10 mg/kg i.v.
MEASURED_PARAMETER: CL renal (mL/min/kg)
Give bare numbers, in mL/min/kg.

-- ask Quick one: give measured CL renal for CC1CCN(C(=O)CC#N)CC1N(C)c1ncnc2[nH]ccc12 (stereo not shown)
-- reply 3.73

* * *

- ASSAY_COMMENT: in vitro
- DETAILS: rat, plasma, pH 7.4, Plasma protein binding, CON rat plasma; 10 μg/mL tofacitinib, 37 °C, 24 h
MEASURED_PARAMETER: fraction unbound at 24 h, 10 μg/mL
Numbers only.

-- ask Quick one: give measured fraction unbound at 24 h, 10 μg/mL for CC1CCN(C(=O)CC#N)CC1N(C)c1ncnc2[nH]ccc12 (stereo not shown) [tofacitinib]
-- reply 0.749

* * *

- ASSAY_COMMENT: in vivo
- DETAILS: rat, in vivo, iv, 10 mg/kg, Vss, LC-ISN rats; 10 mg/kg i.v.
MEASURED_PARAMETER: Vd (L/kg)
Give bare numbers, in L/kg.

-- ask Quick one: give measured Vd for CC1CCN(C(=O)CC#N)CC1N(C)c1ncnc2[nH]ccc12 (stereo not shown) [tofacitinib]
-- reply 0.8
